Tested on: A375 cells
measurement-protocol: Tumor cell line proliferation assay (CellTiter Glo), A375
Type: cell-based
experimental-parameters: Homo sapiens, A-375, 96 h, read-out: A375 (V599E) Cell Proliferation IC50
pIC50: −log10 of the molar value.
measurement-label: pIC50

compound	pIC50
COc1ccc(-c2n[nH]c3cc4c(cc23)CN([C@@H]2CCCN(Cc3ccccc3)C2)C(=O)N4)cn1 [Example 272]	≥ 6.60
Cc1cc(-c2n[nH]c3cc4c(cc23)CN([C@@H]2CCCNC2)C(=O)N4)ccn1 [Example 32]	< 6.00
Cc1cc(-c2n[nH]c3cc4c(cc23)CN([C@H](C)c2ccc(F)cc2)C(=O)N4)ccn1 [Example 5]	< 6.00
Cc1cc(-c2n[nH]c3cc4[nH]c(=O)n(Cc5ccccc5)c(=O)c4cc23)ccn1 [Example 27]	< 6.00
Cc1cc(-c2n[nH]c3cc4c(cc23)CN([C@@H]2CCCN(Cc3ccc(F)cc3F)C2)C(=O)N4)ccn1 [Example 196]	≥ 6.60
Cc1ccc(-c2n[nH]c3cc4c(cc23)CN([C@@H]2CCCN(Cc3ccccc3)C2)C(=O)N4)cn1 [Example 275]	≥ 6.60

Okay, next one:
Assign pIC50 to the following record: Cc1cc(-c2n[nH]c3cc4c(cc23)CN([C@@H]2CN(CC#N)C[C@H]2c2ccccc2)C(=O)N4)ccn1 (mixture of isomers) [Example 366]
< 6.00

* * *

System: phospho-p90 RSK (RSK1 Thr359/Ser363) in A375 (Braf V600E) cells
measurement-protocol: Phospho-p90 RSK ELISA using A375 (Braf V600E) cells
Assay type: cell-based
experimental-parameters: Homo sapiens, A-375, 2 hours compound treatment, read-out: Cellular Phospho-p90RSK IC50
Experimental: In preparation for the assay, an ELISA plate with the pre-coated goat anti-mouse antibody (Thermo Scientific) was treated with a mouse anti-human RSK1 antibody (monoclonal, Invitrogen) at 1:800 dilution (150 ng/well) in PBS, and the plate was placed on a plate shaker at 4° C. overnight. […] Finally, 100 μL of TMB stop solution (Thermo Scientific) was added to each well and the absorbance is measured at 450 nm on a Tecan plate reader.
measurement-label: IC50

molecule	readout-value
Cc1cc(-c2n[nH]c3cc4c(cc23)CN([C@@H]2CCCN(CC3CCC3)C2)C(=O)N4)ccn1	250 to 1000 nM
Cn1cc(-c2n[nH]c3cc4c(cc23)CN([C@@H]2CCCN(Cc3ccc(F)cc3F)C2)C(=O)N4)cn1	≤ 250 nM

Quick batch: IC50 for everything below.
1. Cc1cc(-c2n[nH]c3cc4c(cc23)CN([C@@H]2CCCN(C(C)C(F)(F)F)C2)C(=O)N4)ccn1 (stereo partly shown)
2. Cc1cc(-c2n[nH]c3cc4c(cc23)CN([C@@H]2CCCN(Cc3ccc(F)s3)C2)C(=O)N4)ccn1

≤ 250 nM
≤ 250 nM

* * *

Test system: WM-266-4 cells
measurement-protocol: Tumor cell line proliferation assay (CellTiter Glo), WM-266-4
Assay type: cell-based
experimental-parameters: Homo sapiens, 96 hours, read-out: WM-266-4 (V599D) Cell Proliferation IC50
measurement-label: IC50

Observe how each entry below is paired with its result.
molecule	IC50
Cc1cc(-c2n[nH]c3cc4c(cc23)CN(Cc2ccc(F)cc2F)C(=O)N4)ccn1 [Example 11]	≤ 250 nM
Cc1cc(-c2n[nH]c3cc4c(cc23)CN(Cc2ccc(C(F)(F)F)cc2)C(=O)N4)ccn1 [Example 12]	≤ 250 nM
COc1ccc(CN2Cc3cc4c(-c5ccnc(C)c5)n[nH]c4cc3NC2=O)cc1 [Example 10]	≤ 250 nM
Cc1cc(-c2n[nH]c3cc4[nH]c(=O)n(Cc5ccccc5)c4cc23)ccn1 [Example 19]	> 1000 nM
Cc1cc(-c2n[nH]c3cc4[nH]c(=O)n(Cc5cccc(Cl)c5)c(=O)c4cc23)ccn1 [Example 24]	> 1000 nM
Cc1cc(-c2n[nH]c3cc4[nH]c(=O)c(Cc5ccc(F)cc5)cc4cc23)ccn1 [Example 21]	250 to 1000 nM

Quick batch: IC50 for everything below.
1. Cc1cc(-c2n[nH]c3cc4c(cc23)CN(C2(c3ccc(F)cc3)CC2)C(=O)N4)ccn1 [Example 17]
2. Cc1cc(-c2n[nH]c3cc4c(cc23)CN([C@H](C)c2ccc(C#N)cc2)C(=O)N4)ccn1 [Example 23]

1. > 1000 nM
2. > 1000 nM

* * *

Provide the reported IC50 of each item.
Tested on: phospho-p90 RSK (RSK1 Thr359/Ser363) in A375 (Braf V600E) cells
measurement-protocol: Phospho-p90 RSK ELISA using A375 (Braf V600E) cells
Format: cell-based
experimental-parameters: Homo sapiens, A-375, 2 hours compound treatment, read-out: Cellular Phospho-p90RSK IC50
Procedure: In preparation for the assay, an ELISA plate with the pre-coated goat anti-mouse antibody (Thermo Scientific) was treated with a mouse anti-human RSK1 antibody (monoclonal, Invitrogen) at 1:800 dilution (150 ng/well) in PBS, and the plate was placed on a plate shaker at 4° C. overnight. […] Finally, 100 μL of TMB stop solution (Thermo Scientific) was added to each well and the absorbance is measured at 450 nm on a Tecan plate reader.

molecule	assay-target	measurement-label	readout-value
Cc1cc(-c2n[nH]c3cc4c(cc23)CN([C@H](C)c2ccc(Cl)cc2)C(=O)N4)ccn1 [Example 16]	phospho-p90 RSK (RSK1 Thr359/Ser363) in A375 (Braf V600E) cells	IC50	≤ 250 nM
Cc1cc(-c2n[nH]c3cc4c(cc23)CN([C@@H]2CCN(c3cccc(Cl)c3)C2)C(=O)N4)ccn1 [Example 249]	phospho-p90 RSK (RSK1 Thr359/Ser363) in A375 (Braf V600E) cells	IC50	≤ 250 nM
Cc1cc(-c2n[nH]c3cc4c(cc23)CN([C@@H]2CCCN(Cc3ccccc3Cl)C2)C(=O)N4)ccn1 [Example 158]	phospho-p90 RSK (RSK1 Thr359/Ser363) in A375 (Braf V600E) cells	IC50	≤ 250 nM
Cc1cc(-c2n[nH]c3cc4c(cc23)CN(C(C)c2nc(C)c(C)s2)C(=O)N4)ccn1 (stereo not drawn) [Example 286]	phospho-p90 RSK (RSK1 Thr359/Ser363) in A375 (Braf V600E) cells	IC50	≤ 250 nM
Cc1ccc(CN2CCC[C@@H](N3Cc4cc5c(-c6ccnc(C)c6)n[nH]c5cc4NC3=O)C2)cn1 [Example 131]	phospho-p90 RSK (RSK1 Thr359/Ser363) in A375 (Braf V600E) cells	IC50	> 1000 nM

Quick batch: IC50 for everything below.
1. Cc1cc(-c2n[nH]c3cc4c(cc23)CN([C@@H]2CN(C3CCOCC3)C[C@H]2c2ccccc2)C(=O)N4)ccn1 (mixture of isomers) [Example 359]
2. COc1cc(-c2n[nH]c3cc4c(cc23)CN([C@@H]2CCCN(Cc3ccccc3)C2)C(=O)N4)ccn1 [Example 270]
3. Cc1cc(-c2n[nH]c3cc4c(cc23)CN(Cc2ccc(F)c(F)c2)C(=O)N4)ccn1 [Example 13]
4. O=C1Nc2cc3[nH]nc(-c4ccnnc4)c3cc2CN1Cc1cccc(C(F)(F)F)c1 [Example 124]

1. 250 to 1000 nM
2. ≤ 250 nM
3. ≤ 250 nM
4. 250 to 1000 nM

Quick batch: IC50 for everything below.
1. Cc1cc(-c2n[nH]c3cc4c(cc23)CN(CC2CCCC2)C(=O)N4)ccn1 [Example 212]
2. Cc1cc(-c2n[nH]c3cc4[nH]c(=O)c(CC5CCCCC5)cc4cc23)ccn1 [Example 266]
3. Cc1ncc(-c2n[nH]c3cc4c(cc23)CN([C@@H]2CCCN(Cc3ccccc3)C2)C(=O)N4)cn1 [Example 292]
4. Cc1cc(-c2n[nH]c3cc4c(cc23)CN([C@@H]2CCCN(Cc3cc(F)ccc3F)C2)C(=O)N4)ccn1 [Example 187]
5. CC(c1ccccc1)c1cc2cc3c(-c4ccnnc4)n[nH]c3cc2[nH]c1=O (stereo not drawn) [Example 323]

1: ≤ 250 nM; 2: ≤ 250 nM; 3: ≤ 250 nM; 4: ≤ 250 nM; 5: ≤ 250 nM

Assign IC50 to the following record: Cc1ccc(-c2n[nH]c3cc4[nH]c(=O)c(C5CCCN(Cc6ccccc6)C5)cc4cc23)cn1 (stereo not drawn) [Example 373]
250 to 1000 nM

* * *

System: phospho-p90 RSK (RSK1 Thr359/Ser363) in A375 (Braf V600E) cells
measurement-protocol: Phospho-p90 RSK ELISA using A375 (Braf V600E) cells
Format: cell-based
experimental-parameters: Homo sapiens, A-375, 2 hours compound treatment, read-out: Cellular Phospho-p90RSK IC50
pIC50: −log10 of the molar value.
Provide the reported pIC50 of each item.

Observe how each entry below is paired with its result.
compound	readout-value
Cc1cc(-c2n[nH]c3cc4c(cc23)CN([C@@H]2CCCN(Cc3ccccc3)C2)C(=O)N4)ccn1	≥ 6.60
CC(c1ccccc1)c1cc2cc3c(-c4cnn(C)c4)n[nH]c3cc2[nH]c1=O (stereo not shown)	≥ 6.60
Cc1cc(-c2n[nH]c3cc4c(cc23)CN(C2CN(Cc3ccccc3)CC(F)(F)C2)C(=O)N4)ccn1 (stereo not shown)	≥ 6.60
COc1ncc(-c2n[nH]c3cc4c(cc23)CN([C@@H]2CCCN(Cc3cccs3)C2)C(=O)N4)cn1	≥ 6.60
COc1ncc(-c2n[nH]c3cc4c(cc23)CN(CCc2cccc(Cl)c2)C(=O)N4)cn1	≥ 6.60

Quick batch: pIC50 for everything below.
1. CC(c1ccccc1)c1cc2cc3c(-c4cnc(N)nc4)n[nH]c3cc2[nH]c1=O (stereo not shown)
2. O=C1Nc2cc3[nH]nc(-c4ccnnc4)c3cc2CN1[C@@H]1CN(CC(F)(F)F)C[C@H]1c1ccccc1
3. O=C1Nc2cc3[nH]nc(-c4ccnnc4)c3cc2CN1[C@@H]1CCCN(Cc2ccccc2)C1
4. Cc1cc(-c2n[nH]c3cc4c(cc23)CN([C@@H]2CCCN(Cc3csc(C)c3)C2)C(=O)N4)ccn1

1: ≥ 6.60; 2: ≥ 6.60; 3: ≥ 6.60; 4: ≥ 6.60
